Reference source for all entries: paper PMC8927968

- Tested on: rSis7d
- Test: BLI
- Test settings: BLI: 20 mM Tris-HCl pH 6.8, 100 mM KCl, 1 mM EDTA, 0.05% Tween-20, 30°C; pull-down: 10 mM HEPES pH 7.6, 100 mM KCl, 2.5 mM MgCl2, 0.1 mg/mL BSA, room …
Property label: Kd
Quick note: number first, unit second.

Input line: Please look at this sequence and report its Kd: TAGAGCCCTAGTCTTCCAAACTAGCTACGC (double strand) [D30]
Output line: 1040 nM
